TESTED_SYSTEM: T1, human integrin αvβ6 on cells (human, UniProt P06756 31-1048; P18564 22-788)
T1 construct: whole, on cells; also called HEK293F:huβ6
T1 sequence (P06756 31-1048, chain 1 of 2): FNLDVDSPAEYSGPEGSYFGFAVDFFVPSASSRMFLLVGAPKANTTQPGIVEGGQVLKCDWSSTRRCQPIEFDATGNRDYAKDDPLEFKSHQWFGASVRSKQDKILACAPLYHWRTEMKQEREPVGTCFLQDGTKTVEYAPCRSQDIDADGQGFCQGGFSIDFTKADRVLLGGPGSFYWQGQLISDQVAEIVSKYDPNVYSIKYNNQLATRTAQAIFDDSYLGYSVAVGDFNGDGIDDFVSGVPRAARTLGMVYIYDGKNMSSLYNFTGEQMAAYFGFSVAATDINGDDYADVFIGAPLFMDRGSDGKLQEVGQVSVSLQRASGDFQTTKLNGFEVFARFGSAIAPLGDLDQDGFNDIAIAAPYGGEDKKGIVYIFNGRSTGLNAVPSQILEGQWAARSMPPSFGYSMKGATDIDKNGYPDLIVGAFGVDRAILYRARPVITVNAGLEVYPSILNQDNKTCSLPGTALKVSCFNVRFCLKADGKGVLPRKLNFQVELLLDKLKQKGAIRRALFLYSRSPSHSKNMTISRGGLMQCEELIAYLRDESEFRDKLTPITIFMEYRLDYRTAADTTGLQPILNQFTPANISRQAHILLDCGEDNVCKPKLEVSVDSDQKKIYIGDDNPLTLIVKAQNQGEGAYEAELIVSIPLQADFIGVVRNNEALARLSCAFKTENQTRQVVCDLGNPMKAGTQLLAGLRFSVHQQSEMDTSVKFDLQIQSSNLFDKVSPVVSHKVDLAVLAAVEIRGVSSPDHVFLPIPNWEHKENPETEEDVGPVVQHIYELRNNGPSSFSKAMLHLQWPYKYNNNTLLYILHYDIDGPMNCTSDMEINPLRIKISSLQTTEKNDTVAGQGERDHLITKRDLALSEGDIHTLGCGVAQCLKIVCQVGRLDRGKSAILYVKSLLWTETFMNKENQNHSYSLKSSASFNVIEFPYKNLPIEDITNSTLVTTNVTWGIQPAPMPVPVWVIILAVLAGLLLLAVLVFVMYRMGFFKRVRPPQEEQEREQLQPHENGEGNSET
T1 sequence (P18564 22-788, chain 2 of 2): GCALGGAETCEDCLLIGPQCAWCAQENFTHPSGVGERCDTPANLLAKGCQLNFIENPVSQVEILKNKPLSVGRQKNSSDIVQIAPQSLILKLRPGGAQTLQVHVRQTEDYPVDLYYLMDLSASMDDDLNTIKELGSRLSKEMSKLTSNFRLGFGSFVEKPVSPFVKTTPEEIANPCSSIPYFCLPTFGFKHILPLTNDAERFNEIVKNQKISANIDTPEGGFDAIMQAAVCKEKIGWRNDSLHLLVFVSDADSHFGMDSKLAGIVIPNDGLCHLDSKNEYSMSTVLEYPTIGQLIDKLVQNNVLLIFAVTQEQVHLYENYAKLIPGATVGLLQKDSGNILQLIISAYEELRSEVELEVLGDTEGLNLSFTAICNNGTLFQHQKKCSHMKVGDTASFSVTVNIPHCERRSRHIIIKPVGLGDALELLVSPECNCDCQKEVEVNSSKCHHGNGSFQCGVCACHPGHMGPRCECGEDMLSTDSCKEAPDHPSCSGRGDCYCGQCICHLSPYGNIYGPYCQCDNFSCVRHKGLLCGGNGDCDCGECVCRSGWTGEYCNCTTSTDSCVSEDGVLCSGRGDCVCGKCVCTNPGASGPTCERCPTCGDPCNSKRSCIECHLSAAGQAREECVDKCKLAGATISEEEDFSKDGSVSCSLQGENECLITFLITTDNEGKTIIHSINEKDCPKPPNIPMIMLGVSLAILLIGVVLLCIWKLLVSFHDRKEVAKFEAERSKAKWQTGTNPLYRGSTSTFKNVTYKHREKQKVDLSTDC
METHOD: competition binding, flow cytometry on 293F cells expressing αvβ6; competitor 2 nM AlexaFluor-647 m15H3
The threshold is 4 nM. Values of EC50 beneath it are tagged Fulfilled; values meeting or exceeding it are tagged Not fulfilled.

| BINDER | GROUP |
| --- | --- |
| humanized 15H3 antibody HMLG (antibody, V domains shown) VH: QVQLVQSGAEVKKPGASVKVSCKASGYSFSGYFMNWVRQAPGQGLEWMGLINPYNGDSFYNQKFKGRVTMTRQKSSSTAYMELSSLRSEDTAVYYCARGLRRDFDYWGQGTLVTVSS VL: DVVLTQSPLSLPVTLGQPASISCKSSQSLLDSDGKTYLNWLFQRPGQSPRRLIYLVSELDSGVPDRFSGSGSGTDFTLKISRVEAEDVGVYYCWQGTHFPRTFGGGTKLEIKR | Fulfilled |
| humanized 15H3 antibody HMLC (antibody, V domains shown) VH: QVQLVQSGAEVKKPGASVKVSCKASGYSFSGYFMNWVRQAPGQGLEWMGLINPYNGDSFYNQKFKGRVTMTRQKSSSTAYMELSSLRSEDTAVYYCARGLRRDFDYWGQGTLVTVSS VL: DVVMTQSPLSLPVTLGQPASISCKSSQSLLDSDGKTYLNWLFQRPGQSPRRLIYLVSELDSGVPDRFSGSGSGTDFTLKISRVEAEDVGVYYCWQGTHFPRTFGGGTKLEIKR | Fulfilled |
| humanized 15H3 antibody HTLC (antibody, V domains shown, Only variable regions are tied to the construct; also called h15H3 (HTLC); h15H3-3) VH: QVQLVQSGAEVKKPGASVKVSCKASGYSFSGYFMNWVRQAPGQGLEWMGLINPYNGDSFYNQKFKGRVTMTRQTSTSTVYMELSSLRSEDTAVYYCVRGLRRDFDYWGQGTLVTVSS VL: DVVMTQSPLSLPVTLGQPASISCKSSQSLLDSDGKTYLNWLFQRPGQSPRRLIYLVSELDSGVPDRFSGSGSGTDFTLKISRVEAEDVGVYYCWQGTHFPRTFGGGTKLEIKR | Fulfilled |
| humanized 15H3 antibody HLLC (antibody, V domains shown, also called h15H3-2) VH: QVQLVQSGAEVKKPGASVKVSCKASGYSFSGYFMNWVRQAPGQGLEWMGLINPYNGDSFYNQKFKGRVTMTRDKSSSTAYMELSSLRSEDTAVYYCARGLRRDFDYWGQGTLVTVSS VL: DVVMTQSPLSLPVTLGQPASISCKSSQSLLDSDGKTYLNWLFQRPGQSPRRLIYLVSELDSGVPDRFSGSGSGTDFTLKISRVEAEDVGVYYCWQGTHFPRTFGGGTKLEIKR | Fulfilled |
| humanized 15H3 antibody HNLC (antibody, V domains shown) VH: QVQLVQSGAEVKKPGASVKVSCKASGYSFSGYFMNWVRQAPGQGLEWMGLINPYNGDSFYNQKFKGRVTMTRQTSTSTVYMELSSLRSEDTAVYYCARGLRRDFDYWGQGTLVTVSS VL: DVVMTQSPLSLPVTLGQPASISCKSSQSLLDSDGKTYLNWLFQRPGQSPRRLIYLVSELDSGVPDRFSGSGSGTDFTLKISRVEAEDVGVYYCWQGTHFPRTFGGGTKLEIKR | Not fulfilled |
| humanized 15H3 antibody HBLC (antibody, V domains shown, Only variable regions are tied to the construct; also called h15H3 (HBLC); h15H3-1) VH: QVQLVQSGAEVKKPGASVKVSCKASGYSFSGYFMNWVRQAPGQGLEWMGLINPYNGDSFYNQKFKGRVTMTRDTSTSTVYMELSSLRSEDTAVYYCARGLRRDFDYWGQGTLVTVSS VL: DVVMTQSPLSLPVTLGQPASISCKSSQSLLDSDGKTYLNWLFQRPGQSPRRLIYLVSELDSGVPDRFSGSGSGTDFTLKISRVEAEDVGVYYCWQGTHFPRTFGGGTKLEIKR | Not fulfilled |
| humanized 15H3 antibody HNLG (antibody, V domains shown) VH: QVQLVQSGAEVKKPGASVKVSCKASGYSFSGYFMNWVRQAPGQGLEWMGLINPYNGDSFYNQKFKGRVTMTRQTSTSTVYMELSSLRSEDTAVYYCARGLRRDFDYWGQGTLVTVSS VL: DVVLTQSPLSLPVTLGQPASISCKSSQSLLDSDGKTYLNWLFQRPGQSPRRLIYLVSELDSGVPDRFSGSGSGTDFTLKISRVEAEDVGVYYCWQGTHFPRTFGGGTKLEIKR | Fulfilled |
